EXPERIMENTAL_TARGET: T1, MHC class I molecule A*0201 (biotin (bound to streptavidin-coated plate))
T1 construct: also called A2; HLA-A2
METHOD: iTopia iScore
Measured iScore of individual entries
READOUT_TYPE: iScore

| BINDER | READOUT_TYPE | TEST_RESULT |
| --- | --- | --- |
| LCECSEAAR [5T4 9-mer peptide 33 LCECSEAAR] | iScore | 0 |
| AARTVKCVN [5T4 9-mer peptide 36 AARTVKCVN] | iScore | 0.115 |
| LDLSHNPLA [5T4 9-mer peptide 74 LDLSHNPLA] | iScore | 0.226 |
| LLGWVSSSS [5T4 9-mer peptide 13 LLGWVSSSS] | iScore | 0.243 |
| PLPDQCPAL [5T4 9-mer peptide 29 PLPDQCPAL] | iScore | 0.88 |
| LELASNHFL [5T4 9-mer peptide 108 LELASNHFL] | iScore | 0.151 |
| RGPAAGDGR [5T4 9-mer peptide 4 RGPAAGDGR] | iScore | 0.032 |
